Cited source: patent US12180192B2

study.target: THR alpha (Homo sapiens)
Construct: expressed in transfected cells; host or cells: HEK293T (ATCC CRL-3216)
Sequence (P10827 1-410 isoform P10827-2): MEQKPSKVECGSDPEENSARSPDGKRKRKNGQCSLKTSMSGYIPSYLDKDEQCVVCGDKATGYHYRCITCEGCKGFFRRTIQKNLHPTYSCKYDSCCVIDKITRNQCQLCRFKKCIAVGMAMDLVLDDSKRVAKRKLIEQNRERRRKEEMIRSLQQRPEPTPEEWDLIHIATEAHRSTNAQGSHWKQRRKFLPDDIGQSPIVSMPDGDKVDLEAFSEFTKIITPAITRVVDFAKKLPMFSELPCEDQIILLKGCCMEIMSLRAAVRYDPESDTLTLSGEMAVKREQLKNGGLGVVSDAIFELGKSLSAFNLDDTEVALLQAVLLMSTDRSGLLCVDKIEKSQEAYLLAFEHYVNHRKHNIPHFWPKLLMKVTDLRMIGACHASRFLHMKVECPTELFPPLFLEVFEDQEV
Sequence (P19793 whole entry partner): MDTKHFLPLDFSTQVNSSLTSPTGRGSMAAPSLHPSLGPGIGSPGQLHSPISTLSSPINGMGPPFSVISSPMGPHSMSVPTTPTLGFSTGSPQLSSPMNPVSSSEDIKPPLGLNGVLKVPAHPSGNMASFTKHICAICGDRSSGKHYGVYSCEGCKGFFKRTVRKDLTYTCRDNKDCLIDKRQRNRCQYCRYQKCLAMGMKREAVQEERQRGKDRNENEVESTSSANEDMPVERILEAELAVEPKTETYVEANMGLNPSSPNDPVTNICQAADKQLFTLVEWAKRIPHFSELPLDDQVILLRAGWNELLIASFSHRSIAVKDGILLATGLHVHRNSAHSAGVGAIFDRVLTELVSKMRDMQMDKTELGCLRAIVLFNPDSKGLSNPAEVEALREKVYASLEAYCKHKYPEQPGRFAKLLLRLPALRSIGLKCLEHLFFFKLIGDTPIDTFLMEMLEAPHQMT
experimental.details: HEK293T THR alpha/RXR luciferase reporter assay (Assay 2)
Type: cell-based
assay.context: HEK-293T, Table 5; Assay 2; THRα; read-out: Activity category Assay 2 THRα (Emax)
quantity: Emax

>>> df
                                    compound  experimental_value
 0  CC1(C)C(=O)Nc2nnc(Oc3c(Cl)cc(-n4nc(C#N)c(=O)[nH]c4=O)cc3Cl)cc21               < 50%
 1  CC(C)c1c[nH]c2ccc(Oc3c(Cl)cc(-n4nc(N)c(=O)[nH]c4=O)cc3Cl)cc12           50 to 75%
 2  Cc1cc(-n2nc(N)c(=O)[nH]c2=O)cc(C)c1Cc1ccc(O)c(-c2ccccc2)n1               > 75%
 3  CC(C)c1cc(Oc2c(Br)cc(-n3nc(N)c(=O)[nH]c3=O)cc2Br)n[nH]c1=O               > 75%
 4  CC(C)C1(C)C(=O)Nc2ccc(Oc3c(Cl)cc(-n4nc(N)c(=O)[nH]c4=O)cc3Cl)cc21 (stereo not drawn)               > 75%
 5  N#Cc1nn(-c2cc(Cl)c(Oc3ccc4[nH]cc(C#N)c4c3)c(Cl)c2)c(=O)[nH]c1=O               < 50%
 6  Nc1nn(-c2cc(Cl)c(Oc3cc(-c4ccc5ncccc5c4)c(=O)[nH]n3)c(Cl)c2)c(=O)[nH]c1=O               < 50%
 7  CCCCCc1n[nH]c2ccc(Cc3c(C)cc(-n4nc(C#N)c(=O)[nH]c4=O)cc3C)cc12               > 75%
 8  Nc1nn(-c2cc(Cl)c(Oc3cc(C4CCC(F)(F)CC4)c(=O)[nH]n3)c(Cl)c2)c(=O)[nH]c1=O               < 50%
 9  Nc1nn(-c2cc(Cl)c(Oc3n[nH]c(=O)cc3-c3ccccc3)c(Cl)c2)c(=O)[nH]c1=O               < 50%
10  Cc1cc(-n2ncc(=O)[nH]c2=O)cc(C)c1Cc1ccc2c(c1)C1(CC1)C(=O)N2           50 to 75%
11  CC(C)Nc1n[nH]c2ccc(Oc3c(Cl)cc(-n4nc(C#N)c(=O)[nH]c4=O)cc3Cl)cc12           50 to 75%
12  CC(C)c1cc(Oc2c(Cl)cc(-c3nn(C)c(=O)[nH]c3=O)cc2Cl)n[nH]c1=O               > 75%
13  Nc1nn(-c2cc(Cl)c(Oc3n[nH]c(=O)cc3-c3ccc4c(c3)CCCC4)c(Cl)c2)c(=O)[nH]c1=O               < 50%
14  Nc1nn(-c2cc(Cl)c(Oc3cc(C4CCC4)c(=O)[nH]n3)c(Cl)c2)c(=O)[nH]c1=O               > 75%
